Values compiled from the antibiotic and cytotoxicity screens of Wong et al. (2023).

- System: HepG2
- protocol: cytotoxicity call (relative viability < 0.9)
- assay-conditions: 10 µM
The whole screen tested about 39,000 compounds, of which about 3,300 (8.5%) were called active. This excerpt belongs to a sample that is enriched for actives.
Select the correct class. Options are active, inactive and nothing else.

Lab log entry: CCC1C(=O)OCC1Cc1cncn1C.O=[N+]([O-])O (stereo unspecified) — outcome as called in the assay?
inactive

Could you please tell me the result logged for `CC(C)NC(=O)Nc1ccc2c(c1)C(=O)N([C@H](C)CO)C[C@@H](C)[C@@H](CN(C)C(=O)C1CCCCC1)OCCCC[C@H](C)O2` in this assay?
inactive

Would you mind telling me which call this test gave `C=CCC[C@H](Cc1ccc(F)cc1)C(=O)O[C@@H](CNC(=O)[C@@H](CC=C)CC(=O)N[C@@H](CO)Cc1ccccc1)c1ccccc1` ?
inactive

# fetch the recorded call for `C[C@H]1CN([C@@H](C)CO)C(=O)Cc2cc(NC(=O)CCN3CCOCC3)ccc2O[C@H]1CN(C)Cc1ccc(C(=O)Nc2ccccc2N)cc1` here
inactive

Entry `O=S(=O)(NCC[C@H]1CC[C@H](NS(=O)(=O)c2ccccc2Cl)[C@@H](CO)O1)c1ccc(F)cc1` : call = ?
active

In this assay, the call recorded for `CN(C)CC(=O)N[C@H]1CC[C@H](CCNS(=O)(=O)c2ccccc2)O[C@H]1CO` was what?
inactive

Could you please tell me the result logged for `CN(C)C(=O)c1ccc(-c2cccc(-c3nc(C(=O)NC4CCCCC4)cc4c3[C@H](CCO)N([S@@](=O)C(C)(C)C)C4)c2)cc1` in this assay?
inactive

Dear all, I need the recorded test outcome for `COc1ccc2c3c([nH]c2c1)[C@H](CO)N(C[C@]13CCN(CC1)C(=O)CN(C)C)S(=O)(=O)C` , thank you.
inactive

In this assay, the call recorded for `O=C(O)[C@H]1C[C@H](O)CN1Cc1ccccc1` was what?
inactive

Which outcome did this test record for the compound `O=C(C[C@@H]1C=C[C@@H](NC(=O)CN2CCOCC2)[C@@H](CO)O1)NCCc1ccccc1` ?
inactive

How did this test come out for `COc1ccc(NC(=O)Nc2ccc3c(c2)[C@@H]2C[C@H](CC(=O)NCc4ccccn4)O[C@H](CO)[C@@H]2O3)cc1` ?
inactive

How was `COc1ccc(CN(C)C[C@H]2OCCCC[C@H](C)Oc3ccc(NS(=O)(=O)c4ccc(Cl)cc4)cc3C(=O)N([C@H](C)CO)C[C@H]2C)cc1` classified in this test?
inactive

Test call, this compound: `C[C@@H]1CN([C@@H](C)CO)C(=O)c2cccc(NC(=O)C3CCCCC3)c2O[C@@H]1CN(C)S(=O)(=O)c1cn(C)cn1`
inactive

Please let me know the test result on file for `O=S(=O)(NCC[C@@H]1CC[C@H](NS(=O)(=O)c2ccccc2Cl)[C@H](CO)O1)c1ccc(F)cc1` .
inactive

How did this test come out for `C[C@@H]1CN([C@H](C)CO)C(=O)c2cccc(NC(=O)C3CC3)c2O[C@@H]1CN(C)C(=O)Nc1ccc2c(c1)OCO2` ?
inactive

Please state the recorded outcome for this compound: `CC[n+]1oc(-c2ccccc2)cc1C`
active

* * *

- System: HepG2
- protocol: cytotoxicity call (relative viability < 0.9)
- assay-conditions: 10 µM
Hit rate of the full screen: of about 39,000 compounds, about 3,300 (8.5%) were called active. Shown is part of a subset that was picked to be rich in actives.
Answer with one of the outcomes given here: active, inactive

# outcome recorded in this test, key = `COc1ccc(S(=O)(=O)Nc2ccc3c(c2)C(=O)N([C@H](C)CO)C[C@@H](C)[C@H](CN(C)C(=O)Nc2ccc(C(F)(F)F)cc2)OCCCC[C@H](C)O3)cc1`
inactive

Tell me the assay call for `C[C@H]1CCCCO[C@H](CN(C)Cc2ccc(C(F)(F)F)cc2)[C@@H](C)CN([C@@H](C)CO)C(=O)c2cc(NC(=O)c3ccncc3)ccc2O1` please.
inactive

Would you mind telling me which call this test gave `C[C@@H]1CCCCO[C@@H](CN(C)S(=O)(=O)c2cccs2)[C@@H](C)CN([C@H](C)CO)C(=O)c2cc(NS(=O)(=O)c3cn(C)cn3)ccc2O1` ?
inactive

Please indicate how the test categorized `C[C@@H]1CN([C@@H](C)CO)C(=O)Cc2cc(NC(=O)Cc3ccccc3)ccc2O[C@@H]1CN(C)Cc1ccc(-c2ccccc2)cc1` .
active

Hi, sorry to bother you, what did the test record for `C[C@@H]1CN([C@H](C)CO)C(=O)Cc2cc(NC(=O)Cc3ccccc3)ccc2O[C@H]1CN(C)Cc1ccc(-c2ccccc2)cc1` ?
inactive

# outcome recorded in this test, key = `C[C@H](CO)N1C[C@H](C)[C@@H](CN(C)Cc2ccc(-c3ccccc3)cc2)Oc2ccc(NC(=O)Cc3ccccc3)cc2CC1=O`
inactive
